# TEST NAME: Cytotoxicity against mock-infected human MT4 cells after 5 days by MTT assay
# Format: cell-based
METRIC: CC50 at 120 h

1. Cn1cc(C(=O)O)c(=O)c2ccc(N3CCN(c4nccs4)CC3)cc21	> 125 µg/mL
2. Cn1cc(C(=O)O)c(=O)c2cc(N)c(N3CCN(Cc4ccccn4)CC3)cc21	> 125 µg/mL
3. Cn1cc(C(=O)NCc2ccc(Cl)cc2)c(=O)c2cc(N)c(N3CCN(c4ccccn4)CC3)cc21	> 125 µg/mL

# CC50 at 120 h (compound: Cn1cc(C(=O)O)c(=O)c2cc(N)c(N3CCC(c4ccccn4)CC3)cc21 ) is > 125 µg/mL

Consider CC(=O)c1cn(C)c2cc(N3CCN(c4ccccn4)CC3)c(N)cc2c1=O . Its measured CC50 at 120 h is > 125 µg/mL

Memo: Cn1cc(C(=O)O)c(=O)c2ccc(N3CCN(c4nc5ccccc5o4)CC3)cc21 , reported CC50 at 120 h: > 125 µg/mL

Entry Cn1cc(C(=O)O)c(=O)c2ccc(N3CCN(c4cnccn4)CC3)cc21 , CC50 at 120 h reported as > 125 µg/mL

Per the records, this compound ( C/C(=N\O)c1cn(C)c2cc(N3CCN(c4ccccn4)CC3)c(N)cc2c1=O ) has CC50 at 120 h equal to > 125 µg/mL

For this compound ( Cn1cc(C(=O)O)c(=O)c2cc(N)c(N3CCNCC3)cc21 ), measured CC50 at 120 h is ≥ 94 µg/mL

Quick note, CC50 at 120 h for Cn1cc(C(=O)O)c(=O)c2cc(N)c(N3CCC(c4ccccn4)C3)cc21 (configuration not stated) landed at > 90.8 µg/mL

GET /value?item= Cn1cc(C(N)=O)c(=O)c2cc(N)c(N3CCN(c4ccccn4)CC3)cc21 &field=CC50 at 120 h returns > 125 µg/mL

Lab note: measured CC50 at 120 h of Cc1cccc(Sc2cc3c(cc2N)c(=O)c(C(=O)O)cn3C)c1 was > 2 µg/mL
